- system: human V1a receptor (Homo sapiens (Human))
- Sequence (P37288 whole entry): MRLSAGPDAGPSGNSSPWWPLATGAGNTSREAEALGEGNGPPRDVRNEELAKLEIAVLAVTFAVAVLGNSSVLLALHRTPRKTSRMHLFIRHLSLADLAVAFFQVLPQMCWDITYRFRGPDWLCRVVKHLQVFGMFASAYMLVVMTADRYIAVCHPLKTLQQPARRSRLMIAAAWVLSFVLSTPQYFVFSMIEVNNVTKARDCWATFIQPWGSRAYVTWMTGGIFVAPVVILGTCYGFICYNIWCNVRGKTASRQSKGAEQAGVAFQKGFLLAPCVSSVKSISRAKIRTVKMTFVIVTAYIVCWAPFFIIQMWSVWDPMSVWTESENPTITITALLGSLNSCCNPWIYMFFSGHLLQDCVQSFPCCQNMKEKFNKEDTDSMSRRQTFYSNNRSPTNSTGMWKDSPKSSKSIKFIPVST
- assay_text: Cellular in vitro assay for determining vasopressin receptor activity (V1a, aequorin luminescence)
- test_settings: CHO cell line transfected with human V1a receptor; [Arg8]-vasopressin at EC50 concentration; read-out: IC50 hV1a
pIC50: −log10 of the molar value.
Recorded measurements of pIC50, one per entry
quantity_kind: pIC50

1) O=C(NC(Cn1c(-c2ccc(Cl)cc2)nn(Cc2ncn(-c3ncccc3Cl)n2)c1=O)C(F)(F)F)C1(O)CC1 (racemic): 8.39
2) Cl.O=C(NC(Cn1c(-c2ccc(Cl)cc2)nn(Cc2ncn(-c3ncccc3C(F)(F)F)n2)c1=O)C(F)(F)F)[C@@H]1C[C@H](F)CN1 (stereo partly shown): 8.31
3) N#CCC(=O)NC(Cn1c(-c2ccc(Cl)cc2)nn(Cc2ncn(-c3ncccc3Cl)n2)c1=O)C(F)(F)F (racemic): 7.98
4) O=C(NC(Cn1c(-c2ccc(Cl)cc2)nn(Cc2ncn(-c3ncccc3Cl)n2)c1=O)C(F)(F)F)[C@@H]1C[C@H](F)CN1 (mixture of isomers): 8.27
5) COCC(=O)NC(Cn1c(-c2ccc(Cl)cc2)nn(Cc2ncn(-c3ncccc3C(F)(F)F)n2)c1=O)C(F)(F)F (racemic): 8.21
6) Cl.O=C(NC(Cn1c(-c2ccc(Cl)cc2)nn(Cc2ncn(-c3ncccc3C(F)(F)F)n2)c1=O)C(F)(F)F)C1NCC1(F)F (stereo not shown): 8.71
7) NC1(C(=O)NC(Cn2c(-c3ccc(Cl)cc3)nn(Cc3ncn(-c4ncccc4Cl)n3)c2=O)C(F)(F)F)CC1 (racemic): 6.67
8) O=C(NC(Cn1c(-c2ccc(Cl)cc2)nn(Cc2ncn(-c3ncccc3Cl)n2)c1=O)C(F)(F)F)C1CCN1 (stereo not shown): 7.50
9) O=C(NC(Cn1c(-c2ccc(Cl)cc2)nn(Cc2ncn(-c3ncccc3C(F)(F)F)n2)c1=O)C(F)(F)F)C1CS(=O)(=O)C1 (racemic): 8.80
10) O=C1CC[C@@H](C(=O)NC(Cn2c(-c3ccc(Cl)cc3)nn(Cc3ncn(-c4ncccc4Cl)n3)c2=O)C(F)(F)F)N1 (single isomer, unassigned) [Example 36]: 8.46
11) Cl.O=C(NC(Cn1c(-c2ccc(Cl)cc2)nn(Cc2ncn(-c3ncccc3C(F)(F)F)n2)c1=O)C(F)(F)F)[C@@H]1C[C@@H](F)CN1 (stereo partly shown): 8.20
12) O=C(NC(Cn1c(-c2ccc(Cl)cc2)nn(Cc2ncn(-c3ncccc3C(F)(F)F)n2)c1=O)C(F)(F)F)C1CC1(F)F (stereo not shown): 8.27
13) O=C(CCC(F)(F)F)NC(Cn1c(-c2ccc(Cl)cc2)nn(Cc2ncn(-c3ncccc3C(F)(F)F)n2)c1=O)C(F)(F)F (racemic): 8.72
14) O=C1NCC(C(=O)NC(Cn2c(-c3ccc(Cl)cc3)nn(Cc3ncn(-c4ncccc4Cl)n3)c2=O)C(F)(F)F)N1 (stereo not shown): 7.39
15) O=C(NC(Cn1c(-c2ccc(Cl)cc2)nn(Cc2ncn(-c3ncccc3Cl)n2)c1=O)C(F)(F)F)C1CCO1 (stereo not shown): 8.39
16) O=C(CF)NC(Cn1c(-c2ccc(Cl)cc2)nn(Cc2ncn(-c3ncccc3C(F)(F)F)n2)c1=O)C(F)(F)F (racemic): 7.30
17) O=C(NC(Cn1c(-c2ccc(Cl)cc2)nn(Cc2ncn(-c3ncccc3Cl)n2)c1=O)C(F)(F)F)C1(C(F)(F)F)CC1 (racemic) [Example 41]: 8.82
18) CC(C)(O)C(=O)NC(Cn1c(-c2ccc(Cl)cc2)nn(Cc2ncn(-c3ncccc3Cl)n2)c1=O)C(F)(F)F (racemic): 8.02
19) O=C1CC[C@@H](C(=O)NC(Cn2c(-c3ccc(Cl)cc3)nn(Cc3ncn(-c4ncccc4Cl)n3)c2=O)C(F)(F)F)N1 (single isomer, unassigned) [Example 37]: 6.53
20) COCC(=O)NC(Cn1c(-c2ccc(Cl)cc2)nn(Cc2ncn(-c3ncccc3Cl)n2)c1=O)C(F)(F)F (racemic): 8.25
21) CC(F)(F)C(=O)NC(Cn1c(-c2ccc(Cl)cc2)nn(Cc2ncn(-c3ncccc3Cl)n2)c1=O)C(F)(F)F (racemic): 8.00
22) CCC(=O)NC(Cn1c(-c2ccc(Cl)cc2)nn(Cc2ncn(-c3ncccc3Cl)n2)c1=O)C(F)(F)F (racemic): 8.16
23) CS(=O)(=O)CC(=O)NC(Cn1c(-c2ccc(Cl)cc2)nn(Cc2ncn(-c3ncccc3Cl)n2)c1=O)C(F)(F)F (single isomer, unassigned) [Example 46]: 8.87
24) O=C(CF)NC(Cn1c(-c2ccc(Cl)cc2)nn(Cc2ncn(-c3ncccc3Cl)n2)c1=O)C(F)(F)F (racemic): 7.37
25) O=C(NC(Cn1c(-c2ccc(Cl)cc2)nn(Cc2ncn(-c3ncccc3Cl)n2)c1=O)C(F)(F)F)C1CS(=O)(=O)C1 (single isomer, unassigned) [Example 40]: 6.43
